System: Escherichia coli TOP10
experiment: shrunken log2 fold change of peptide-encoding DNA abundance (4.5 h post-induction vs induction); higher = less antimicrobial activity (less host growth inhibition)
measurement conditions: time post-induction: 4.5 h; library: site-saturation at positions 5, 18, 19, 20
property measured: shrunken log2 fold change

Completed entries (count: 4):
RRIRLRPPRLPRPRPRPWGHPRP    0.105
RRIRHRPPRLPRPRPRPFIMPRP    -0.505
RRIRCRPPRLPRPRPRPMNYPRP    -0.226
RRIRPRPPRLPRPRPRPNKYPRP    -0.662

Supply recorded shrunken log2 fold change for RRIRQRPPRLPRPRPRPDVQPRP here.
-0.0191

Supply recorded shrunken log2 fold change for RRIRWRPPRLPRPRPRPMLIPRP here.
0.157

Supply recorded shrunken log2 fold change for RRIRQRPPRLPRPRPRPGCQPRP here.
-0.103

Supply recorded shrunken log2 fold change for RRIRWRPPRLPRPRPRPFICPRP here.
-0.309

Supply recorded shrunken log2 fold change for RRIRQRPPRLPRPRPRPFAIPRP here.
0.00479

Supply recorded shrunken log2 fold change for RRIRSRPPRLPRPRPRPQNKPRP here.
-0.561

Supply recorded shrunken log2 fold change for RRIRGRPPRLPRPRPRPVEYPRP here.
-0.0779

Supply recorded shrunken log2 fold change for RRIRTRPPRLPRPRPRPPHAPRP here.
0.312

Supply recorded shrunken log2 fold change for RRIRARPPRLPRPRPRPCSSPRP here.
0.0291

Supply recorded shrunken log2 fold change for RRIRCRPPRLPRPRPRPECTPRP here.
-0.0491

Supply recorded shrunken log2 fold change for RRIRPRPPRLPRPRPRPQEFPRP here.
0.0774

Supply recorded shrunken log2 fold change for RRIRCRPPRLPRPRPRPIFKPRP here.
-0.323

Supply recorded shrunken log2 fold change for RRIRLRPPRLPRPRPRPHVSPRP here.
0.00444

* * *

Tested on: Escherichia coli TOP10
experiment: shrunken log2 fold change of peptide-encoding DNA abundance (4.5 h post-induction vs induction); higher = less antimicrobial activity (less host growth inhibition)
measurement conditions: time post-induction: 4.5 h; library: site-saturation at positions 5, 18, 19, 20
Label met when shrunken log2 fold change is at or above -0.05; otherwise label not met.

RRIRHRPPRLPRPRPRPRRTPRP    met

Lab note: next sequence to report on.
Check the entry RRIRMRPPRLPRPRPRPVMKPRP : does shrunken log2 fold change equal or exceed -0.05?
met

* * *

Test system: Escherichia coli TOP10
experiment: shrunken log2 fold change of peptide-encoding DNA abundance (4.5 h post-induction vs induction); higher = less antimicrobial activity (less host growth inhibition)
measurement conditions: time post-induction: 4.5 h; library: site-saturation at positions 5, 18, 19, 20
Label yes when shrunken log2 fold change is at or above 0.09; otherwise label no.

RRIRLRPPRLPRPRPRPDGWPRP    yes
RRIRFRPPRLPRPRPRPLVHPRP    no
RRIRRRPPRLPRPRPRPGHDPRP    no
RRIRFRPPRLPRPRPRPMATPRP    no
RRIRYRPPRLPRPRPRPENIPRP    no

Lab note: next sequence to report on.
Check the entry RRIRERPPRLPRPRPRPGGVPRP : does shrunken log2 fold change equal or exceed 0.09?
no

* * *

Tested on: Escherichia coli TOP10
experiment: shrunken log2 fold change of peptide-encoding DNA abundance (4.5 h post-induction vs induction); higher = less antimicrobial activity (less host growth inhibition)
measurement conditions: time post-induction: 4.5 h; library: site-saturation at positions 5, 18, 19, 20
Label MET when shrunken log2 fold change is at or above -0.004; otherwise label NOT MET.

RRIRVRPPRLPRPRPRPCRQPRP    NOT MET
RRIRYRPPRLPRPRPRPGMDPRP    NOT MET
RRIRGRPPRLPRPRPRPVYDPRP    MET
RRIRLRPPRLPRPRPRPLKPPRP    MET
RRIRVRPPRLPRPRPRPFMYPRP    NOT MET

Check the entry RRIRRRPPRLPRPRPRPVDHPRP : does shrunken log2 fold change equal or exceed -0.004?
MET

Check the entry RRIRWRPPRLPRPRPRPTWEPRP : does shrunken log2 fold change equal or exceed -0.004?
MET

* * *

Tested on: Escherichia coli TOP10
experiment: shrunken log2 fold change of peptide-encoding DNA abundance (4.5 h post-induction vs induction); higher = less antimicrobial activity (less host growth inhibition)
measurement conditions: time post-induction: 4.5 h; library: site-saturation at positions 5, 18, 19, 20
shrunken log2 fold change: recorded values
Give only the figure.

RRIRPRPPRLPRPRPRPLDAPRP    0.131
RRIRMRPPRLPRPRPRPMYCPRP    -0.0254
RRIRKRPPRLPRPRPRPWPIPRP    0.891
RRIRKRPPRLPRPRPRPYGAPRP    0.00792
RRIRSRPPRLPRPRPRPYDEPRP    0.0261

Supply recorded shrunken log2 fold change for RRIRMRPPRLPRPRPRPHFMPRP here.
-0.127

Supply recorded shrunken log2 fold change for RRIRVRPPRLPRPRPRPGVLPRP here.
0.0138

Supply recorded shrunken log2 fold change for RRIRARPPRLPRPRPRPLRFPRP here.
0.396

* * *

Tested on: Escherichia coli TOP10
experiment: shrunken log2 fold change of peptide-encoding DNA abundance (4.5 h post-induction vs induction); higher = less antimicrobial activity (less host growth inhibition)
measurement conditions: time post-induction: 4.5 h; library: site-saturation at positions 5, 18, 19, 20
shrunken log2 fold change: recorded values
Give only the figure.

Supply recorded shrunken log2 fold change for RRIRIRPPRLPRPRPRPVEHPRP here.
0.0873

Supply recorded shrunken log2 fold change for RRIRRRPPRLPRPRPRPATRPRP here.
0.226

Supply recorded shrunken log2 fold change for RRIRPRPPRLPRPRPRPQSAPRP here.
1.69

Supply recorded shrunken log2 fold change for RRIRRRPPRLPRPRPRPDIEPRP here.
0.172

Supply recorded shrunken log2 fold change for RRIRVRPPRLPRPRPRPWCVPRP here.
-0.504

* * *

shrunken log2 fold change: recorded values
System: Escherichia coli TOP10
experiment: shrunken log2 fold change of peptide-encoding DNA abundance (4.5 h post-induction vs induction); higher = less antimicrobial activity (less host growth inhibition)
measurement conditions: time post-induction: 4.5 h; library: site-saturation at positions 5, 18, 19, 20
Give only the figure.

RRIRYRPPRLPRPRPRPNTCPRP    -0.155
RRIRGRPPRLPRPRPRPDAHPRP    0.421
RRIRERPPRLPRPRPRPCRQPRP    -0.157
RRIRARPPRLPRPRPRPNKMPRP    -0.177
RRIRYRPPRLPRPRPRPRKGPRP    -0.013
RRIRLRPPRLPRPRPRPKPGPRP    0.396
RRIRKRPPRLPRPRPRPERVPRP    0.281
RRIRPRPPRLPRPRPRPPGEPRP    0.00468
RRIRMRPPRLPRPRPRPNIVPRP    0.0335
RRIRCRPPRLPRPRPRPIPEPRP    0.00841

Supply recorded shrunken log2 fold change for RRIRVRPPRLPRPRPRPWAYPRP here.
-0.323

Supply recorded shrunken log2 fold change for RRIRFRPPRLPRPRPRPWFLPRP here.
-1.15

* * *

shrunken log2 fold change: recorded values
Test system: Escherichia coli TOP10;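 further: peptides expressed intracellularly from a pBAD plasmid library in pooled LB shake-flask culture, induced with 0.3% L-arabinose, DNA abundance read by NGS, three biological replicates, DESeq2 with apeglm shrinkage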
experiment: shrunken log2 fold change of peptide-encoding DNA abundance (4.5 h post-induction vs induction); higher = less antimicrobial activity (less host growth inhibition)
measurement conditions: time post-induction: 4.5 h; library: site-saturation at positions 5, 18, 19, 20
Give only the figure.

Completed entries (count: 5):
RRIRARPPRLPRPRPRPCRQPRP    -0.0784
RRIRGRPPRLPRPRPRPWSPPRP    0.178
RRIRNRPPRLPRPRPRPTTFPRP    -0.337
RRIRLRPPRLPRPRPRPHWDPRP    0.176
RRIRCRPPRLPRPRPRPYRKPRP    -0.49

Supply recorded shrunken log2 fold change for RRIRGRPPRLPRPRPRPKYEPRP here.
0.56

Supply recorded shrunken log2 fold change for RRIRMRPPRLPRPRPRPSFRPRP here.
0.142

Supply recorded shrunken log2 fold change for RRIRDRPPRLPRPRPRPFVPPRP here.
-0.0913

Supply recorded shrunken log2 fold change for RRIRNRPPRLPRPRPRPDFHPRP here.
-0.441

Supply recorded shrunken log2 fold change for RRIRDRPPRLPRPRPRPPPSPRP here.
0.838

Supply recorded shrunken log2 fold change for RRIRSRPPRLPRPRPRPWPMPRP here.
-0.111

Supply recorded shrunken log2 fold change for RRIRQRPPRLPRPRPRPDGVPRP here.
-0.119

Supply recorded shrunken log2 fold change for RRIRWRPPRLPRPRPRPWEMPRP here.
-0.0156

Supply recorded shrunken log2 fold change for RRIRHRPPRLPRPRPRPIDFPRP here.
0.0271

Supply recorded shrunken log2 fold change for RRIRCRPPRLPRPRPRPPMFPRP here.
-0.121
